Tested on: HeLa cells
Assay: [35S]-methionine incorporation into proteins (translation inhibition), 1 h incubation
Assay type: cell-based
Details: 1 h incubation; read-out: IC50, inhibition of [35S]-methionine incorporation into proteins
pIC50: −log10 of the molar value.
metric name: pIC50

# compound structure, metric name, recorded measurement
rows = [
    ("COC(=O)[C@H]1[C@@H](OC=O)[C@@]2(O)c3c(OC)cc(OC)cc3O[C@@]2(c2ccc(OC)cc2)[C@@H]1c1ccccc1", "pIC50", "~7.00"),
]
